B1: OR4K15 (parent)
chain: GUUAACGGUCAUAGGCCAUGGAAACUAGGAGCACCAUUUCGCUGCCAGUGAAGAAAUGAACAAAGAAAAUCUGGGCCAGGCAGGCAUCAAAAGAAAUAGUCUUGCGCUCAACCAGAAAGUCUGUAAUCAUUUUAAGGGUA

- Variants of: B1
- PROTOCOL NOTES: self-cleavage, relative activity (ratio to wild type); higher = more cleavage; in vitro, sequencing; the parent is a self-cleaving ribozyme
Label scheme for self-cleavage: class 1 = under 0.3, class 2 = from 0.3 up to 1, class 3 = 1 and over

For orientation, consider the following solved cases.
{"columns": ["ALTERATION", "GROUP LABEL"],
 "data": [
  ["A51U U72C", "class 1"],
  ["U9A U97A", "class 3"],
  ["U49C A56C", "class 3"],
  ["C25G A59G", "class 2"],
  ["A22U A54G", "class 3"]
]}

Next variant, please.
q: Determine which band this variant sits in: U103A A110G
a: class 1
